- Organism: Mus musculus
- measurement_protocol: Effect on antagonism of nicotine-induced death (D) in Carworth farms male albino mice
- Type: functional
Kindly supply the reported ED50 values for the records listed here.
Answers are plain numbers, in mg/kg.

Cc1nnc2n1-c1ccc(Cl)cc1C(N1CCCCC1)=NC2 = 0.4

// batch mode: one ED50 value per listed entry
1. Cc1nnc2n1-c1ccc(Cl)cc1C(N1CCOCC1)=NC2
2. Cc1nnc2n1-c1ccc(Cl)cc1C(N1CCCC1)=NC2

1: 71; 2: 18

----------
- Species on record: Mus musculus
- measurement_protocol: Effect on prolongation of hypoxic survival time (HS) in Carworth farms male albino mice
- Type: functional
test_readout: ED50 (mg/kg)
Answers are plain numbers, in mg/kg.

Cc1nnc2n1-c1ccc(Cl)cc1C(c1ccccc1)=NC2 = 0.2
CN1C(=O)CN=C(c2ccccc2)c2cc(Cl)ccc21 = 0.2
Cc1nnc2n1-c1ccc(Cl)cc1CN=C2N1CCN(C)CC1 = 40

// query ED50 value for entry Cc1nnc2n1-c1ccc(Cl)cc1C(N1CCCCC1)=NC2 0.3

----------
For each record, write down the corresponding ED50.
- Organism: Mus musculus
- measurement_protocol: Effect on antagonism of nicotine-induced death (D) in Carworth farms male albino mice
- Type: functional

CCCCCCNC1=NCc2nnc(C)n2-c2ccc(Cl)cc21 = > 100 mg/kg

Below is a list of compounds. For each, state its recorded ED50.
1. Cc1nnc2n1-c1ccc(Cl)cc1C(N1CCN(CCO)CC1)=NC2
2. Cc1nnc2n1-c1ccc(Cl)cc1C(N1CCCCCC1)=NC2
3. Cc1nnc2n1-c1ccc(Cl)cc1C(c1ccccc1)=NC2 [ALPRAZOLAM]
4. CN1C(=O)CN=C(c2ccccc2)c2cc(Cl)ccc21 [DIAZEPAM]
5. Cc1nnc2n1-c1ccc(Cl)cc1C(N1CCN(c3ccccc3)CC1)=NC2

1: > 100 mg/kg; 2: > 100 mg/kg; 3: 0.02 mg/kg; 4: 0.28 mg/kg; 5: > 100 mg/kg

FYI, the data here is from ChEMBL document CHEMBL1121489.
